# Target: Cannabinoid receptor 1 (Homo sapiens, UniProt P21554)
# Sequence (P21554 whole entry): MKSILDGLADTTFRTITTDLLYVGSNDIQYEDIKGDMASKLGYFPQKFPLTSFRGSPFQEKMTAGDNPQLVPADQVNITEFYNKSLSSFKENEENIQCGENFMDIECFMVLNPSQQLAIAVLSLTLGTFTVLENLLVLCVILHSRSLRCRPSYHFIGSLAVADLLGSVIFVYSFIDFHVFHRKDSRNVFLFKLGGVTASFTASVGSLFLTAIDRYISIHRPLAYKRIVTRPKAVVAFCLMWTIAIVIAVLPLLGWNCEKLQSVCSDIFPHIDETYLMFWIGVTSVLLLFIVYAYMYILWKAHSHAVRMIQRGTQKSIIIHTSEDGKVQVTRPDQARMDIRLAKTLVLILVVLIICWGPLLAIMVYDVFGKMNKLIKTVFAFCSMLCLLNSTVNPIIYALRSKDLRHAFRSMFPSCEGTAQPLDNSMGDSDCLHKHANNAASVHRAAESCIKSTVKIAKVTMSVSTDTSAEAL
# Applied Conditions: CHO, at 1 µM
Quantity: inhibition (%)
Report only the number, with the unit % understood.

Consider the worked cases shown below.
CCCCCc1cc(OC)c2cc(Cc3cccc(OC)c3)c(=O)oc2c1; 58
CCCCCc1cc(OC)c2cc(Cc3ccccc3Cl)c(=O)oc2c1; 6
CCCCCCC(C)(C)c1cc(O)c2cc(Cc3ccccc3)c(=O)oc2c1; 84
CCCCCc1cc(OC)c2cc(Cc3ccccc3)c(=O)oc2c1; 58
CCCCCc1cc(O)c2cc(Cc3cccc(C)c3)c(=O)oc2c1; 42

Challenge: Specify reported inhibition for the compound shown: CCCCCCC(C)(C)c1cc(OC)c2cc(Cc3ccccc3OC)c(=O)oc2c1
Response given: 0
